System: human liver cancer cell line (HepG2)
Test: MTT assay, cytotoxicity
Type: cell-based
Conditions: HepG2; 39.0625 μg/ml; 24 hours
assay.metric: survival percentage (mean ± SEM) (%)
Give bare numbers, in %.

>>> print(df.to_string())
                            compound_string  numeric_readout
0  CCOC(=O)N1CCc2c(sc3nc(SCC(=O)Nc4ccc(C(=O)/C=C\c5cc(OC)c(OC)c(OC)c5)cc4)[nH]c(=O)c23)C1             45.1

Record survival percentage (mean ± SEM) per entry; entries follow.
1. CCOC(=O)Cn1c(SCC(=O)Nc2ccc(C(=O)/C=C\c3cc(OC)c(OC)c(OC)c3)cc2)nc2sc3c(c2c1=O)CCN(C(=O)OCC)C3
2. CCOC(=O)Cn1c(SCC(=O)Nc2ccc(C(=O)/C=C\c3cccc([N+](=O)[O-])c3)cc2)nc2sc3c(c2c1=O)CC(C)(C)NC3(C)C
3. CCOC(=O)Cn1c(SCC(=O)Nc2ccc(C(=O)/C=C\c3cccc([N+](=O)[O-])c3)cc2)nc2sc3c(c2c1=O)CCN(C(=O)OCC)C3
4. CCOC(=O)Cn1c(SCC(=O)Nc2ccc(C(=O)/C=C\c3ccccc3Cl)cc2)nc2sc3c(c2c1=O)CCN(C(=O)OCC)C3
5. CCOCc1nc2sc3c(c2c(=O)n1CC(=O)Nc1ccc(C(=O)/C=C\c2cccc([N+](=O)[O-])c2)cc1)CCN(C(=O)OCC)C3

[18.4, 64.1, 63.0, 73.8, 119.1]

---

So I've got a bunch of molecules here, and I need their survival percentage (mean ± SEM) values.
Tested on: human breast cancer cell line (MCF-7)
Test: MTT assay, cytotoxicity
Assay type: cell-based
Conditions: MCF-7; 78.125 μg/ml; 24 hours
Protocol: Cancer cell lines were manipulated according to the method described by Sigounas et al.. […] The 3-[4,5-dimethylthiazol-2-yl]-2,5-diphenyltetrazolium bromide (MTT) colorimetric assay was used to examine the sensitivity of cells to tested compounds (as anticancer drugs), as previously described. […] The percentage of cell survival was calculated as follows: (1) Percentage of survival=O.D.treated cells/O.D.control cells×100. […]
Give bare numbers, in %.

Record survival percentage (mean ± SEM) per entry; entries follow.
1. CCOC(=O)Cn1c(SCC(=O)Nc2ccc(C(=O)/C=C\c3cccc([N+](=O)[O-])c3)cc2)nc2sc3c(c2c1=O)CC(C)(C)NC3(C)C
2. CCOC(=O)N1CCc2c(sc3nc(SCC(=O)Nc4ccc(C(=O)/C=C\c5cc(OC)c(OC)c(OC)c5)cc4)[nH]c(=O)c23)C1
3. CCOC(=O)Cn1c(SCC(=O)Nc2ccc(C(=O)/C=C\c3cccc([N+](=O)[O-])c3)cc2)nc2sc3c(c2c1=O)CCN(C(=O)OCC)C3
4. CCOC(=O)Cn1c(SCC(=O)Nc2ccc(C(=O)/C=C\c3ccccc3Cl)cc2)nc2sc3c(c2c1=O)CCN(C(=O)OCC)C3

1: 28.0; 2: 109.2; 3: 121.5; 4: 108.4

Record survival percentage (mean ± SEM) per entry; entries follow.
1. CCOCc1nc2sc3c(c2c(=O)n1CC(=O)Nc1ccc(C(=O)/C=C\c2cccc([N+](=O)[O-])c2)cc1)CCN(C(=O)OCC)C3
2. CCOC(=O)Cn1c(SCC(=O)Nc2ccc(C(=O)/C=C\c3cc(OC)c(OC)c(OC)c3)cc2)nc2sc3c(c2c1=O)CCN(C(=O)OCC)C3

120.2
27.7
